Readings of inhibition at 1 µM for the listed molecules
Experimental Target: MNK1a (Homo sapiens (Human))
Sequence (Q9BUB5 other isoform, or with tags, fused parts or gaps): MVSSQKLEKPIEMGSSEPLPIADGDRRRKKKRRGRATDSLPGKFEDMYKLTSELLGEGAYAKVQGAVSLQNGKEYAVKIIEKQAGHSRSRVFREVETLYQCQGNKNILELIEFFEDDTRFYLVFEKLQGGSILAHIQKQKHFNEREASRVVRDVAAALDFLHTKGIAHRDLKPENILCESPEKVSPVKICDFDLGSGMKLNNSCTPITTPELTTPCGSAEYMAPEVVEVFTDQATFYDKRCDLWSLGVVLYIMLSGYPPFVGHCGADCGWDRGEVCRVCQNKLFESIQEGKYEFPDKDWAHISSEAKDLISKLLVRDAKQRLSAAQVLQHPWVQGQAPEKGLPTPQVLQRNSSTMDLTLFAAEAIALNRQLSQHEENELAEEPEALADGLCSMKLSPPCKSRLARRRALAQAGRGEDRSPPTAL
Test Protocol: MNK1 in vitro kinase assay (Assay 3), Z'-LYTE
Format: biochemical
Recorded Conditions: compound concentration of 1 μM, read-out: MNK1 % INH

- Molecule: "CO[C@@H]1CN(S(C)(=O)=O)C[C@H]1Oc1cc(F)ccc1Nc1ncnc2cc(N=S3(=O)CCCC3)cc(C)c12"
  inhibition at 1 µM, %: 62
- Molecule: "Cc1cc(N=S2(=O)CCC2)cc2ncnc(Nc3ccc(Cl)nc3O[C@@H]3COC[C@H]3O)c12"
  inhibition at 1 µM, %: 83
- Molecule: "Cc1cc(N=S2(=O)CCC(C)C2)cc2ncnc(Nc3ccc(F)cc3O[C@H]3COC[C@@H]3O)c12 (some centres unmarked)"
  inhibition at 1 µM, %: 97
- Molecule: "Cc1cc(N=S2(=O)CCCC2)cc2ncnc(Nc3ccc(F)cc3O[C@H]3COC[C@H]3O)c12 (single isomer, unassigned) [Example 14.6]"
  inhibition at 1 µM, %: 101
- Molecule: "CO[C@@H]1CN(CCF)C[C@H]1Oc1ncccc1Nc1ncnc2cc(N=S(C)(C)=O)cc(C)c12"
  inhibition at 1 µM, %: 31
- Molecule: "COc1cc(N=S(C)(=O)C(C)(C)C)cc2ncnc(Nc3ccc(F)cc3O[C@H]3COC[C@@H]3O)c12 (some centres unmarked)"
  inhibition at 1 µM, %: 97
- Molecule: "Cc1cc(N=S2(=O)CCCC2)cc2ncnc(Nc3ccc(F)cc3O[C@H]3COC[C@H]3OCC(F)F)c12 (racemic)"
  inhibition at 1 µM, %: 104
- Molecule: "O=S1(=Nc2cc(Cl)c3c(Nc4ccc(F)cc4O[C@@H]4COC[C@@H]4O)ncnc3c2)CCC1 (single isomer, unassigned)"
  inhibition at 1 µM, %: 97
- Molecule: "Cc1cc(N=S2(=O)CCCC2)cc2ncnc(Nc3ccc(F)cc3O[C@H]3COC[C@H]3O)c12 (racemic) [Example 2.8]"
  inhibition at 1 µM, %: 100
- Molecule: "Cc1cc(N=S2(=O)CCC2)cc2ncnc(Nc3cccnc3O[C@H]3COC[C@H]3O)c12 (racemic)"
  inhibition at 1 µM, %: 97
- Molecule: "CC(=O)O[C@H]1CN(C(C)=O)C[C@@H]1Oc1ncccc1Nc1ncnc2cc(N=S3(=O)CCCC3)cc(C)c12"
  inhibition at 1 µM, %: 38
- Molecule: "Cc1cc(N=[S@@](C)(=O)c2ccccc2)cc2ncnc(Nc3ccc(F)cc3O[C@@H]3COC[C@@H]3O)c12"
  inhibition at 1 µM, %: 88
- Molecule: "Cc1cc(N=S(C)(=O)C(C)C)cc2ncnc(Nc3ccc(F)cc3O[C@H]3COC[C@@H]3O)c12 (some centres unmarked)"
  inhibition at 1 µM, %: 91
- Molecule: "O=S1(=Nc2cc(F)c3c(Nc4ccc(F)cc4O[C@H]4COC[C@@H]4O)ncnc3c2)CCC1"
  inhibition at 1 µM, %: 99
